# assay_remarks: Stability of QC samples in plasma during storage in different conditions
# Type: in vitro ADME, human
# protocol_conditions: QC 50; Room temperature - light
property: Stability sample during storage (%)
Report only the number, with the unit % understood.

COc1cc(/C=C/C(=O)CC(=O)/C=C/c2ccc(O)c(OC)c2)ccc1O ... 91
O=C(/C=C/c1ccc(O)cc1)CC(=O)/C=C/c1ccc(O)cc1 ... 89
COc1cc(CCC(=O)CC(=O)CCc2ccc(O)c(OC)c2)ccc1O [Tetrahydrocurcumin] ... 93

Pending compound:
Stability sample during storage for O=C(/C=C/C=C/c1ccc2c(c1)OCO2)N1CCCCC1 ?
90

----------
# assay_remarks: Stability of QC samples in plasma during storage in different conditions
# Assay type: in vitro ADME, human
# protocol_conditions: QC 50; On ice - dark
property: Stability sample during storage (%)
Report only the number, with the unit % understood.

For orientation, consider the following solved cases.
O=C(/C=C/C=C/c1ccc2c(c1)OCO2)N1CCCCC1 [Piperine-135, piperine] ... 90
O=C(/C=C/c1ccc(O)cc1)CC(=O)/C=C/c1ccc(O)cc1 [Bisdemethoxy-curcumin, bisdemethoxycurcumin] ... 90
COc1cc(CCC(=O)CC(=O)CCc2ccc(O)c(OC)c2)ccc1O [Tetrahydrocurcumin] ... 99

Pending compound:
Stability sample during storage for COc1cc(/C=C/C(=O)CC(=O)/C=C/c2ccc(O)c(OC)c2)ccc1O [Curcumin, curcumin] ?
89

----------
compounds and their reported Stability sample during storage
# assay_remarks: Stability of QC samples in plasma during storage in different conditions
# Type: in vitro ADME, human
# protocol_conditions: QC 50; Room temperature - dark
Report only the number, with the unit % understood.

For orientation, consider the following solved cases.
COc1cc(/C=C/C(=O)CC(=O)/C=C/c2ccc(O)c(OC)c2)ccc1O ... 94
O=C(/C=C/C=C/c1ccc2c(c1)OCO2)N1CCCCC1 ... 85
COc1cc(CCC(=O)CC(=O)CCc2ccc(O)c(OC)c2)ccc1O [Tetrahydrocurcumin] ... 93

Pending compound:
Stability sample during storage for O=C(/C=C/c1ccc(O)cc1)CC(=O)/C=C/c1ccc(O)cc1 ?
92

----------
# assay_remarks: Freeze-thaw stability of QC stock solution in DMSO
# Format: physicochemical
# protocol_conditions: QC 100 nM 10x thawed; stock 10 μM in DMSO at −20 °C
compounds and their reported Freeze-thaw stability, concentration relative to nominal
Report only the number, with the unit % understood.

For orientation, consider the following solved cases.
O=C(/C=C/c1ccc(O)cc1)CC(=O)/C=C/c1ccc(O)cc1 [Bisdemethoxy-curcumin, bisdemethoxycurcumin] ... 97.1
COc1cc(/C=C/C(=O)CC(=O)/C=C/c2ccc(O)c(OC)c2)ccc1O [Curcumin, curcumin] ... 96.8
COc1cc(CCC(=O)CC(=O)CCc2ccc(O)c(OC)c2)ccc1O [Tetrahydrocurcumin] ... 100.0

Pending compound:
Freeze-thaw stability, concentration relative to nominal for O=C(/C=C/C=C/c1ccc2c(c1)OCO2)N1CCCCC1 [Piperine-135, piperine] ?
101.7

----------
compounds and their reported Stability sample during storage
# assay_remarks: Stability of QC samples in plasma during storage in different conditions
# Format: in vitro ADME, human
# protocol_conditions: QC 10; On ice - dark
Report only the number, with the unit % understood.

Stability sample during storage for COc1cc(/C=C/C(=O)CC(=O)/C=C/c2ccc(O)c(OC)c2)ccc1O ?
76

----------
# assay_remarks: Stability of QC samples in plasma during storage in different conditions
# Format: in vitro ADME, human
# protocol_conditions: QC 100; Room temperature - dark
compounds and their reported Stability sample during storage
Report only the number, with the unit % understood.

For orientation, consider the following solved cases.
O=C(/C=C/C=C/c1ccc2c(c1)OCO2)N1CCCCC1 ... 85
O=C(/C=C/c1ccc(O)cc1)CC(=O)/C=C/c1ccc(O)cc1 ... 84
COc1cc(/C=C/C(=O)CC(=O)/C=C/c2ccc(O)c(OC)c2)ccc1O ... 90

Pending compound:
Stability sample during storage for COc1cc(CCC(=O)CC(=O)CCc2ccc(O)c(OC)c2)ccc1O [Tetrahydrocurcumin] ?
88

----------
molecules and their reported Freeze-thaw stability, concentration relative to nominal
# assay_remarks: Freeze-thaw stability of QC stock solution in DMSO
# Assay type: physicochemical
# protocol_conditions: QC 100 nM 1x thawed; stock 10 μM in DMSO at −20 °C
Report only the number, with the unit % understood.

For orientation, consider the following solved cases.
COc1cc(CCC(=O)CC(=O)CCc2ccc(O)c(OC)c2)ccc1O [Tetrahydrocurcumin] ... 101.0
O=C(/C=C/c1ccc(O)cc1)CC(=O)/C=C/c1ccc(O)cc1 ... 100.7
COc1cc(/C=C/C(=O)CC(=O)/C=C/c2ccc(O)c(OC)c2)ccc1O ... 99.8

Freeze-thaw stability, concentration relative to nominal for O=C(/C=C/C=C/c1ccc2c(c1)OCO2)N1CCCCC1 ?
101.8

----------
# assay_remarks: Stability of QC samples in plasma during storage in different conditions
# Assay type: in vitro ADME, human
# protocol_conditions: QC 100; On ice - dark
property: Stability sample during storage (%)
Report only the number, with the unit % understood.

For orientation, consider the following solved cases.
COc1cc(CCC(=O)CC(=O)CCc2ccc(O)c(OC)c2)ccc1O [Tetrahydrocurcumin] ... 94
COc1cc(/C=C/C(=O)CC(=O)/C=C/c2ccc(O)c(OC)c2)ccc1O [Curcumin, curcumin] ... 87
O=C(/C=C/C=C/c1ccc2c(c1)OCO2)N1CCCCC1 [Piperine-135, piperine] ... 89

Pending compound:
Stability sample during storage for O=C(/C=C/c1ccc(O)cc1)CC(=O)/C=C/c1ccc(O)cc1 [Bisdemethoxy-curcumin, bisdemethoxycurcumin] ?
84

----------
# assay_remarks: Stability of QC samples in plasma during storage in different conditions
# Type: in vitro ADME, human
# protocol_conditions: QC 10; Room temperature - dark
property: Stability sample during storage (%)
Report only the number, with the unit % understood.

For orientation, consider the following solved cases.
O=C(/C=C/C=C/c1ccc2c(c1)OCO2)N1CCCCC1 [Piperine-135, piperine] ... 78
COc1cc(/C=C/C(=O)CC(=O)/C=C/c2ccc(O)c(OC)c2)ccc1O [Curcumin, curcumin] ... 83

Stability sample during storage for COc1cc(CCC(=O)CC(=O)CCc2ccc(O)c(OC)c2)ccc1O [Tetrahydrocurcumin] ?
89

Stability sample during storage for O=C(/C=C/c1ccc(O)cc1)CC(=O)/C=C/c1ccc(O)cc1 [Bisdemethoxy-curcumin, bisdemethoxycurcumin] ?
95

----------
# assay_remarks: Stability of QC samples in plasma during storage in different conditions
# Type: in vitro ADME, human
# protocol_conditions: QC 10; Room temperature - light
property: Stability sample during storage (%)
Report only the number, with the unit % understood.

COc1cc(/C=C/C(=O)CC(=O)/C=C/c2ccc(O)c(OC)c2)ccc1O ... 82

Stability sample during storage for COc1cc(CCC(=O)CC(=O)CCc2ccc(O)c(OC)c2)ccc1O [Tetrahydrocurcumin] ?
88

Stability sample during storage for O=C(/C=C/C=C/c1ccc2c(c1)OCO2)N1CCCCC1 ?
77

Stability sample during storage for O=C(/C=C/c1ccc(O)cc1)CC(=O)/C=C/c1ccc(O)cc1 ?
88

----------
# assay_remarks: Stability of QC samples in plasma during storage in different conditions
# Assay type: in vitro ADME, human
# protocol_conditions: QC 100; Room temperature - light
property: Stability sample during storage (%)
Report only the number, with the unit % understood.

O=C(/C=C/C=C/c1ccc2c(c1)OCO2)N1CCCCC1 ... 85
O=C(/C=C/c1ccc(O)cc1)CC(=O)/C=C/c1ccc(O)cc1 ... 82
COc1cc(CCC(=O)CC(=O)CCc2ccc(O)c(OC)c2)ccc1O [Tetrahydrocurcumin] ... 87

Pending compound:
Stability sample during storage for COc1cc(/C=C/C(=O)CC(=O)/C=C/c2ccc(O)c(OC)c2)ccc1O ?
89

----------
# assay_remarks: Stability of QC samples in plasma during storage in different conditions
# Type: in vitro ADME, human
# protocol_conditions: QC 10; On ice - dark
compounds and their reported Stability sample during storage
Report only the number, with the unit % understood.

For orientation, consider the following solved cases.
O=C(/C=C/c1ccc(O)cc1)CC(=O)/C=C/c1ccc(O)cc1 ... 90
O=C(/C=C/C=C/c1ccc2c(c1)OCO2)N1CCCCC1 ... 77

Stability sample during storage for COc1cc(CCC(=O)CC(=O)CCc2ccc(O)c(OC)c2)ccc1O [Tetrahydrocurcumin] ?
96
